Data origin, for the record: PubChem BioAssay (NCI)

The following compounds are listed with their measured growth inhibition values.
Experiment: NCI Yeast Anticancer Drug Screen. Data for the bub3 strain (AID 167)
Conditions: S. cerevisiae bub3 mutant strain, at 50.0 µM, active compounds read high
Method: Growth inhibition of yeast strains with defined genetic alterations is measured as a screen for potential anti-cancer activity. Selected strains with alterations in DNA damage repair or cell cycle control were exposed to compounds and growth inhibition was measured relative to vehicle treated controls. The strain used in this assay is bub3
The panel holds about 79,000 compounds, 15% with a hit somewhere; the sample as a whole holds those more often.
A number alone suffices; assume %.

>>> reading("CN(CCC(=O)/C(=C\\c1ccc(Cl)cc1)c1ccccc1)Cc1ccccc1")
97.6
>>> reading("O=c1c(Cl)cc2nc3ccccc3sc-2c1Cl")
80.5
>>> reading("Oc1c(Cl)cc(Cl)cc1C=NCCSc1ccc(Cl)cc1")
93.9
>>> reading("O=C1C(Cl)=C(Nc2ccc(S(=O)(=O)Nc3ccccn3)cc2)C(=O)c2ccccc21")
98.7

Proceeding to the next compound to report its growth inhibition.
Task: Query (compound): CN(C)c1ccc(/C=C/c2nc3ccccc3[nH]2)cc1 ; field requested: growth inhibition
Result: 14.6

###

Experiment: NCI Yeast Anticancer Drug Screen. Data for the bub3 strain (AID 167)
Details: S. cerevisiae bub3 mutant strain, at 50.0 µM, active compounds read high
Compounds without any hit were thinned out: in the full panel of roughly 79,000, 15% have a hit.
Property: growth inhibition; scope: individual compounds
Please respond with the number in % and leave the unit unwritten.

Use the examples below as a reference point.
>>> reading("O=C1c2ccccc2C(=O)c2c(/C=C\\N3CCCCC3)ccnc21")
92.3
>>> reading("CCCCCCCCCCCCCCCCCc1nnc(N)o1")
11.2
>>> reading("Cc1cc(C(O)(c2cc(C)c(O)c(C(=O)O)c2)c2cc(C)c(O)c(C(=O)O)c2)cc(C(=O)O)c1O")
-11.7
>>> reading("O=S(c1ccccc1)c1c(Cl)c(Cl)nc(Cl)c1Cl (stereo not given)")
99.5
>>> reading("COc1ccc2ccnc(Cc3ccc(OCc4ccccc4)c(OC)c3)c2c1")
86.5

Now turn to the next compound.
Task: I would be grateful if you could share the reported growth inhibition for CCOC(=O)C(Cl)C(Cl)C(=O)OCC (stereo not given) .
Result: 99

###

Listed here are compounds together with their documented growth inhibition.
Assay: NCI Yeast Anticancer Drug Screen. Data for the cln2 rad14 strain (AID 165);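 note: 0% = growth equal to vehicle treated cultures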
Conditions: S. cerevisiae cln2 rad14 strain, at 50.0 µM (retest, dose inferred, filed as 5.0), active compounds read high
This is part of a sample that, as a whole, favours compounds with a hit. Of some 79,000 tested, about 15% had one in any assay.
Write the value in % as a bare number.

>>> reading("CC/C=C\\C/C=C\\C/C=C\\CCCCCCCC(=O)OCC(O)CO (stereo unspecified)")
10
>>> reading("O=C1C=CC(=O)N1C12CC3CC(CC(C3)C1)C2")
99
>>> reading("CCCCCCCCCCCCCCCC(=O)N(CCCN(CC)CC)C(C)CCCN(CC)CC (stereo unspecified)")
99
>>> reading("COc1ccc(SSc2ccc(OC)n[n+]2[O-])[n+]([O-])n1")
97
>>> reading("CC[n+]1c(/C=C/c2ccc(N(C)C)cc2)ccc2ccccc21")
98

Task: Which growth inhibition value is on record for COc1ccc(CSC(=S)Nc2ccc(SC)c(Cl)c2)cc1 ?
Result: 88

Task: What value of measured growth inhibition is listed for Cc1ccc(N2C(=O)C(C)SC2=S)cc1Cl (stereo unspecified) ?
Result: -2

Task: What value of growth inhibition has been recorded for this entry: Cc1cc(O)c(O)cc1C/C=C/c1ccccc1
Result: 82

Task: What measured growth inhibition goes with CC(C)=CC(=O)OC(CCCc1ccccc1)c1ccc2c(c1)OCO2 (stereo unspecified) ?
Result: 3

Task: Which value of growth inhibition has been reported for CCn1c(=O)cc2n(C)c3ccccc3n2c1=O in the records?
Result: -24

Task: Which measured growth inhibition value corresponds to O=S(=O)(Nc1ccccc1Cl)c1ccccc1 ?
Result: 81

Task: Look up growth inhibition for this compound: CCCCN(CCCC)CC(O)c1cc(-c2ccc(Cl)cc2)nc2c(C)cccc12 (stereo unspecified)
Result: 91

Task: Value lookup for growth inhibition; key = CCN(CC)CCC(=O)c1ccc2c3c(n(C)c2c1)CCCC3
Result: 22

Task: Entry C#CCN(N=O)C(=O)NCCCC(NC(C)=O)C(=O)NCc1ccccc1 (stereo unspecified) : reported growth inhibition = ?
Result: 12

Task: Look up growth inhibition for this compound: Cc1cc(C)c(O)c(C2CC3CCC2(C)C3(C)C)c1 (stereo unspecified)
Result: 91

Task: Value lookup for growth inhibition; key = CCC1CN2CCc3cc(OC)c(OC)cc3C2CC1CC1c2cc(OC)c(OC)cc2CCN1C(=O)C(Cc1c[nH]c2ccccc12)NC(=O)OC(C)(C)C (stereo unspecified)
Result: 98
